# experiment: qHTS of pediatric cancer cell lines to identify multiple opportunities for drug repurposing: Primary screen for A673 cells (AID 1347092); further: nearly all actives have a fitted effect of over 45% in size; further: potency means the concentration at half of the fitted maximal effect
# conditions: A673 Ewing sarcoma viability, CellTiter-Glo ATP luminescence, 48 h; series mostly up to 46 µM
Inconclusive results are not listed. Activity calls are given as the source filed them. The call rests on the fitted dose curve; in most records, active means well fitted cell-killing curve with a large enough effect; inconclusive means small, poorly fitted or top-dose-only effect; inactive means no such curve, though single readings can be large or run the other way.
recorded-endpoint: Potency

Sample answers from the record:
Prompt: Look up Potency for this compound: Clc1ccc2c(N3CCN(CCCN4CCN(c5ccnc6cc(Cl)ccc56)CC4)CC3)ccnc2c1
Response: inactive

Prompt: What do you get for C[Se]CCC(N)C(=O)O (configuration not stated) ?
Response: inactive

Prompt: What do you get for N=C(N)c1ccc2cc(OC(=O)c3ccc(N=C(N)N)cc3)ccc2c1 ?
Response: inactive

Prompt: What do you get for Cc1cc(Cl)ccc1OCCCC(=O)NO ?
Response: 2960 nM (active)

Prompt: What do you get for CC(=O)NC[C@H]1CN(c2ccc(N3CCOCC3)c(F)c2)C(=O)O1 ?
Response: inactive

Prompt: What do you get for COCCCOc1ccnc(CS(=O)c2nc3ccccc3[nH]2)c1C (configuration not stated) ?
Response: inactive

# context switch: different compound, same Potency
Prompt: Look up Potency for this compound: NS(=O)(=O)c1cc(C(=O)O)c(NCc2ccco2)cc1Cl
Response: inactive

====

# target-desc: Thyrotropin-releasing hormone receptor (Homo sapiens)
# experiment: qHTS for Small Molecule Agonists and Allosteric Enhancers of Human TRH Receptor: Validation Screen for Agonists (AID 493127);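 further: intracellular calcium rise by fluo-8 fluorescence before TRH EC20 addition; 0% is about no effect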
# conditions: TRH receptor agonist cell assay; at 2 µM; hits give high values
recorded-endpoint: activation (%)
Quick note: give the figure in %, leave out the unit.

Prompt: Look up activation for this compound: CN(C)CCCC1(c2ccc(F)cc2)OCc2cc(C#N)ccc21 (configuration not stated)
Response: 3.31

Prompt: What do you get for COc1ccccc1N1CCN(CCN(C(=O)C2CCCCC2)c2ccccn2)CC1 ?
Response: -4.06

Prompt: What do you get for COc1cc2nc(N3CCN(C(=O)C4CCCO4)CC3)nc(N)c2cc1OC (configuration not stated) ?
Response: 0.562

Prompt: What do you get for Nc1nc(OCc2ccccc2)c2[nH]cnc2n1 ?
Response: -2.94

Prompt: What do you get for O=C1c2c(O)cc(O)cc2OC(c2ccc(O)c(O)c2)C1O (configuration not stated) ?
Response: 0

Prompt: What do you get for CNC[C@H](O)c1ccc(O)c(O)c1 ?
Response: 0.875

Prompt: What do you get for O=C1NC(=O)C(c2ccccc2[N+](=O)[O-])=C1Nc1ccc(O)c(Cl)c1 ?
Response: 1.69

====

# Tested on: CP329
# experiment: qHTS profiling for inhibitors of Plasmodium falciparum proliferation (AID 504749); further: nearly all actives have a fitted effect of over 60% in size
# conditions: P. falciparum in erythrocytes, SYBR Green DNA, 72 h; series mostly up to 28.7 µM
Records with an inconclusive call do not appear. Activity calls are given as the source filed them. Calls come from the whole dose curve; as a rule, active = well fitted inhibition curve with a large enough effect; inconclusive = small, poorly fitted or top-dose-only effect; inactive = flat fitted curve, though single readings scatter. Peptide text beside a SMILES is read from it.
Pick one and only one: active, inactive

Prompt: Could you kindly confirm the outcome this assay logged for Nc1cc(C(Cl)=C(Cl)Cl)c(S(N)(=O)=O)cc1S(N)(=O)=O ?
Response: inactive

Prompt: What do you get for CCCOc1ccc2nc(NC(=O)OC)[nH]c2c1 ?
Response: inactive

Prompt: What do you get for Cc1cc2c(s1)Nc1ccccc1N=C2N1CCN(C)CC1 ?
Response: inactive

Prompt: What do you get for CCCCN(CCCC)CCC(O)c1cc2c(Cl)cc(Cl)cc2c2cc(C(F)(F)F)ccc12 (stereo unspecified) ?
Response: active

Prompt: What do you get for CCOC(=O)c1c(C)n(C)c2ccc(O)cc12 ?
Response: inactive

Prompt: What do you get for O=C(O)CCNC(=O)c1ccc(N=Nc2ccc(O)c(C(=O)O)c2)cc1 ?
Response: inactive

Prompt: What do you get for CCC1=C(C)CN(C(=O)NCCc2ccc(S(=O)(=O)NC(=O)NC3CCC(C)CC3)cc2)C1=O (stereo unspecified) ?
Response: inactive

Prompt: What do you get for C[C@H](Cn1cnc2c(N)ncnc21)OCP(=O)(O)O ?
Response: inactive

Prompt: What do you get for Cc1cccc(C)c1OCC(=O)N[C@@H](Cc1ccccc1)[C@@H](O)C[C@H](Cc1ccccc1)NC(=O)[C@H](C(C)C)N1CCCNC1=O ?
Response: active

Prompt: What do you get for CCOc1cc(CC(=O)N[C@@H](CC(C)C)c2ccccc2N2CCCCC2)ccc1C(=O)O ?
Response: inactive

Prompt: What do you get for CCN(CC)CCOc1ccc(Cc2ccccc2)cc1 ?
Response: inactive

Prompt: What do you get for Cc1cc(=O)c2c(O)c3c(O)cc(=O)c4c3c3c(cc(O)c1c23)C(C)(C)C=4O ?
Response: active

Prompt: What do you get for COc1cc2c(cc1OC)C1CC(=O)C(CC(C)C)CN1CC2 (stereo unspecified) ?
Response: inactive

Prompt: What do you get for COC(=O)C1=C(C)NC(C)=C(C(=O)OCCCN2CCC(c3ccccc3)(c3ccccc3)CC2)C1c1cccc([N+](=O)[O-])c1 (stereo unspecified) ?
Response: active

Prompt: What do you get for C=CCc1cc(OC)c(O)c(C(=O)NCCO)c1 ?
Response: inactive

Prompt: What do you get for CN(C)CCc1c[nH]c2ccc(Cn3cncn3)cc12 ?
Response: inactive

Prompt: What do you get for CCC(C)(Oc1ccc(C2(c3ccc(OC(C)(CC)C(=O)O)cc3)CCCCC2)cc1)C(=O)O (stereo unspecified) ?
Response: inactive

Prompt: What do you get for COCCCOc1ccnc(CS(=O)c2nc3ccccc3[nH]2)c1C (stereo unspecified) ?
Response: inactive

Prompt: What do you get for CNC[C@@H](O)[C@@H](O)[C@H](O)[C@H](O)CO ?
Response: inactive

Prompt: What do you get for C[C@]12CCC(=O)C=C1CC[C@@H]1[C@H]2[C@@H](O)C[C@@]2(C)[C@H]1CC[C@]2(O)C(=O)CO ?
Response: inactive

Prompt: What do you get for O=P(O)(O)C(O)(Cn1ccnc1)P(=O)(O)O ?
Response: inactive

Prompt: What do you get for Clc1ccc(C(Cn2ccnc2)OCc2ccsc2Cl)c(Cl)c1 (stereo unspecified) ?
Response: active

Prompt: What do you get for COc1ccc2cc([C@H](C)C(=O)O)ccc2c1 ?
Response: inactive

Prompt: What do you get for Cc1nc(Nc2ncc(C(=O)Nc3c(C)cccc3Cl)s2)cc(N2CCN(CCO)CC2)n1 ?
Response: inactive

Prompt: What do you get for CCCCC(CC)COC(=O)C(C#N)=C(c1ccccc1)c1ccccc1 (stereo unspecified) ?
Response: inactive

Prompt: What do you get for CC(S)C(=O)NCC(=O)O (stereo unspecified) ?
Response: inactive

Prompt: What do you get for CCCc1cc(=O)[nH]c(=S)[nH]1 ?
Response: inactive

Prompt: What do you get for O=C1c2ccccc2-c2n[nH]c3cccc1c23 ?
Response: inactive

Prompt: What do you get for CC1(C)CCC(C)(C)c2cc(NC(=O)c3ccc(C(=O)O)cc3)ccc21 ?
Response: inactive

Prompt: What do you get for O=C(CS(=O)Cc1ccco1)NCC=CCOc1cc(CN2CCCCC2)ccn1 (stereo unspecified) ?
Response: inactive

Prompt: What do you get for COC(=O)[C@H](Cc1ccccc1)NC(=O)[C@@H](N)CC(=O)O (H-Asp-Phe-OMe) ?
Response: inactive

====

# experiment: Quantitative High-Throughput drug screen in 47 multiple myeloma cell lines against the NCATS MIPE library collection: KMM1_JCRB cell viability assay (AID 1918960); further: nearly all actives have a fitted effect of over 30% in size; further: potency means the concentration at half of the fitted maximal effect
# conditions: KMM1 myeloma viability, CellTiter-Glo ATP luminescence, 48 h; series mostly up to 45.8 µM
Inconclusive results are not listed. The source made the active and inactive calls. The call rests on the fitted dose curve; in most records, active means well fitted cell-killing curve with a large enough effect; inconclusive means small, poorly fitted or top-dose-only effect, or effect the other way; inactive means no such curve, though single readings can be large or run the other way.
recorded-endpoint: Potency

Sample answers from the record:
Prompt: Look up Potency for this compound: O=C(NCCO[N+](=O)[O-])c1cccnc1
Response: inactive

Prompt: What do you get for CN(C)CCCC1(c2ccc(F)cc2)OCc2cc(C#N)ccc21 (stereo not given) ?
Response: inactive

Prompt: What do you get for CCC1=C(C)CN(C(=O)NCCc2ccc(S(=O)(=O)NC(=O)NC3CCC(C)CC3)cc2)C1=O (stereo not given) ?
Response: inactive

Prompt: What do you get for O=Nc1c(-c2c(O)[nH]c3cc(Br)ccc23)[nH]c2ccccc12 ?
Response: 5.26 µM (active)

Further cases:
Prompt: Look up Potency for this compound: CCOC(=O)C(C)Oc1cccc2c(=O)n(CC(=O)Nc3ccc4c(c3)OCCO4)ccc12 (stereo not given)
Response: 13.2 µM (active)

====

# System: CASKI
# experiment: Primary qHTS to identify gynecologic anti-cancer compounds using libraries of approved drugs and bioactive compounds (AID 1345084); further: nearly all actives have a fitted effect of over 55% in size
# conditions: Gynecologic cancer cell panel viability, ATPlite luminescence, 48 h; series mostly up to 57.5 µM
Inconclusive results are not listed. Activity calls are given as the source filed them. Calls come from the whole dose curve; as a rule, active = well fitted cell-killing curve with a large enough effect; inconclusive = small, poorly fitted or top-dose-only effect, or effect the other way; inactive = flat fitted curve, though single readings scatter.
Pick one and only one: active, inactive

Prompt: Could you kindly confirm the outcome this assay logged for Nc1ncn([C@H]2C[C@H](O)[C@@H](CO)O2)c(=O)n1 ?
Response: inactive

Prompt: What do you get for Cc1ccc(Nc2nccc(N(C)c3ccc4c(C)n(C)nc4c3)n2)cc1S(N)(=O)=O ?
Response: inactive

Prompt: What do you get for CN(C)C(=O)COC(=O)Cc1ccc(OC(=O)c2ccc(N=C(N)N)cc2)cc1 ?
Response: inactive

Prompt: What do you get for O=C(O)CCNC(=O)c1ccc(N=Nc2ccc(O)c(C(=O)O)c2)cc1 ?
Response: inactive

Prompt: What do you get for CC(S)C(=O)NCC(=O)O (stereo unspecified) ?
Response: inactive

Prompt: What do you get for O=C(NC(Cc1cc(=O)[nH]c2ccccc12)C(=O)O)c1ccc(Cl)cc1 (stereo unspecified) ?
Response: inactive

Prompt: What do you get for OC(CN1CCN(c2cccc(Cl)c2)CC1)C(c1ccccc1)c1ccccc1 (stereo unspecified) ?
Response: inactive

Prompt: What do you get for COc1c2occc2cc2ccc(=O)oc12 ?
Response: inactive

Prompt: What do you get for N=C(N=C(N)N)N1CCOCC1 ?
Response: inactive

Prompt: What do you get for CC(C)c1nc(CN(C)C(=O)N[C@H](C(=O)N[C@@H](Cc2ccccc2)C[C@H](O)[C@H](Cc2ccccc2)NC(=O)OCc2cncs2)C(C)C)cs1 ?
Response: inactive

Prompt: What do you get for COc1cc2c(N3CCN(C(=O)Nc4ccc(OC(C)C)cc4)CC3)ncnc2cc1OCCCN1CCCCC1 ?
Response: inactive

Prompt: What do you get for NS(=O)(=O)c1cc(C(=O)O)c(NCc2ccco2)cc1Cl ?
Response: inactive

Prompt: What do you get for CC1(C)CCC(C)(C)c2cc(NC(=O)c3ccc(C(=O)O)cc3)ccc21 ?
Response: inactive

Prompt: What do you get for O=C(O)c1cccnc1Nc1cccc(C(F)(F)F)c1 ?
Response: inactive

Prompt: What do you get for Cc1ncc([N+](=O)[O-])n1CC(C)O (stereo unspecified) ?
Response: inactive

Prompt: What do you get for Cc1cc2c(s1)Nc1ccccc1N=C2N1CCN(C)CC1 ?
Response: inactive

Prompt: What do you get for COCCCOc1ccnc(CS(=O)c2nc3ccccc3[nH]2)c1C (stereo unspecified) ?
Response: inactive

Prompt: What do you get for Cc1cc2cc3c(C)cc(=O)oc3c(C)c2o1 ?
Response: inactive

Prompt: What do you get for COc1ccc(C2(C#N)CCC(C(=O)O)CC2)cc1OC1CCCC1 (stereo unspecified) ?
Response: inactive

Prompt: What do you get for CNC[C@H](O)c1ccc(O)c(O)c1 ?
Response: inactive

Prompt: What do you get for Cc1ccc(C(=O)c2cc(O)c(O)c([N+](=O)[O-])c2)cc1 ?
Response: inactive

Prompt: What do you get for Cc1cc(C2CCCCC2)n(O)c(=O)c1 ?
Response: inactive

Prompt: What do you get for O=C(O)c1cn(-c2ccc(F)cc2)c2cc(N3CCNCC3)c(F)cc2c1=O ?
Response: inactive

Prompt: What do you get for COCCCN1CCC(NC(=O)c2cc(Cl)c(N)c3c2OCC3)CC1 ?
Response: inactive

Prompt: What do you get for CC(C)c1ccc2oc3nc(N)c(C(=O)O)cc3c(=O)c2c1 ?
Response: active

Prompt: What do you get for COC(=O)N[C@H](C(=O)N[C@@H](Cc1ccccc1)[C@@H](O)CN(Cc1ccc(-c2ccccn2)cc1)NC(=O)[C@@H](NC(=O)OC)C(C)(C)C)C(C)(C)C ?
Response: inactive
